Experiment: chemical genetic growth profiling, strain panel (AID 1159580);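 further: tested at 20 µM; growth read once vehicle control cultures reached saturation at 30 °C; lower values mean less growth of the strain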
Settings: S. cerevisiae deletion strains, growth OD, locus YLR133W, strain CKI1
About 2,000 (36%) of roughly 5,500 compounds were called active. About 18% were inconclusive and are not listed. No stated cut-off is given here; in the data, active means normalized growth mostly below about 0.91 (no sharp cut-off); inconclusive means no clear call, values can overlap the other calls; inactive means mostly above about 0.92. The list shows a part of the results.
Outcomes you can answer with include only these: True (active), False (inactive)

Please let me know the test result on file for "CC(C)(C)C(=O)/C(C#N)=C/c1c(Cl)cccc1Cl" . True

Please let me know the test result on file for "CS(=O)(=O)c1sc(C(=O)Sc2ccc(Cl)cc2)c2c1C=CCC2" . True

Please let me know the test result on file for CC1C/C(=N/Nc2ccc(Br)cc2)c2cc(Cl)ccc2S1(=O)=O (stereo unspecified) . False

Please let me know the test result on file for CC1C/C(=N/Nc2ccc(Br)cc2)c2cc(Cl)ccc2S1 (stereo unspecified) . True

Please let me know the test result on file for "CNC(=O)n1nc(C)c(Cc2csc3ccc(Cl)cc23)c1C" . False

Please let me know the test result on file for "NNC(=O)c1csc(Cc2c(Cl)sc3ccc(Cl)cc23)n1" . False

Please let me know the test result on file for "COc1ccc(C(=O)NCc2csc3ccc(Cl)cc23)cc1OC" . False

Please let me know the test result on file for "O=S(=O)(Nc1ccc(Oc2ccc(OC(F)(F)F)cc2)cc1)c1cccc(Cl)c1" . False

Please let me know the test result on file for "O=C(CCn1c(=O)oc2ccccc21)Sc1ccc(Cl)cc1Cl" . True

Please let me know the test result on file for "CS(=O)(=O)/C(C#N)=C/c1ccccc1OCc1c(Cl)cccc1Cl" . False

Please let me know the test result on file for "O=C(CCn1c(=O)oc2ccccc21)Sc1ccc(C(F)(F)F)cc1" . False
